- TARGET_OR_TEST_SYSTEM: UniProt:P30872
- Sequence (P30872 whole entry): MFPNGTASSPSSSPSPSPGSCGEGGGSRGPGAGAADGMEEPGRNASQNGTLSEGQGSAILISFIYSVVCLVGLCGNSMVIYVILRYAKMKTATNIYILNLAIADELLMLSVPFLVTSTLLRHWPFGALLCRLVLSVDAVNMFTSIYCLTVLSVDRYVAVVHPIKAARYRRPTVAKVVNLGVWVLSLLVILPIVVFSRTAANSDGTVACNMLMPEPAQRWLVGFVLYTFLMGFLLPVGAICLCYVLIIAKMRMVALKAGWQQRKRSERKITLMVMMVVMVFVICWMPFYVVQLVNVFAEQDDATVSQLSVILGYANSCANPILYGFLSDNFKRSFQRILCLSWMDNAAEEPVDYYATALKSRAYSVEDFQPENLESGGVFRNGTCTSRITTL
REPORTED_METRIC: IC50
// return the numeric value with its unit appended

Noted IC50 for CC(=O)N[C@@H]1CSSC[C@@H](C(=O)N[C@H](C(N)=O)[C@@H](C)O)NC(=O)[C@H](C(C)C)NC(=O)[C@H](CCCCN)NC(=O)[C@@H](Cc2c[nH]c3ccccc23)NC(=O)[C@H](Cc2ccc(O)cc2)NC1=O , tested on UniProt:P30872: 1000 nM

* * *

Parameter pIC50: see the listing below.
- TARGET_OR_TEST_SYSTEM: Somatostatin receptor type 3 (Homo sapiens)
- Sequence (P32745 whole entry): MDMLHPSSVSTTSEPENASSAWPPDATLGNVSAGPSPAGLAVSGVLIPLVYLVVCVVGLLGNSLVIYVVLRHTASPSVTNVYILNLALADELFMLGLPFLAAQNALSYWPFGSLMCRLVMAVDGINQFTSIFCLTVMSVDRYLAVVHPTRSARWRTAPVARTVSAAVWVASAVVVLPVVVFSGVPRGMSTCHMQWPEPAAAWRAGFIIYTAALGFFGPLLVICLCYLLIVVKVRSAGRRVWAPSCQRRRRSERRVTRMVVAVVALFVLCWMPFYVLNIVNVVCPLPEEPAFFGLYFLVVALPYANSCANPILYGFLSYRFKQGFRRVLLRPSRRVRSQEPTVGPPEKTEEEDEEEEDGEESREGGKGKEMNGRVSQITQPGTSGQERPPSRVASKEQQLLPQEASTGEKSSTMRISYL
- TEST_PROTOCOL: Binding affinity towards cloned human somatostatin 3 (hsst) receptor
Positions of bridges follow the written chain, without caps; N, C: chain ends. Non-standard residues stand in square brackets, D forms with d. Residues, ends and D or L forms follow the SMILES beside them. Phe(4-NO2) = N[C@@H](Cc1ccc([N+](=O)[O-])cc1)C(=O)O; Dip = N[C@H](C(=O)O)C(c1ccccc1)c1ccccc1; 2Nal = N[C@@H](Cc1ccc2ccccc2c1)C(=O)O; 3Pal = N[C@@H](Cc1cccnc1)C(=O)O
The read-out pIC50 is expressed as -log10 of concentration in moles per litre.

# example entries with known answers
# pIC50 of CC(C)[C@@H]1NC(=O)[C@H](CCCCN)NC(=O)[C@@H](Cc2c[nH]c3ccccc23)NC(=O)[C@H](Cc2cccnc2)NC(=O)[C@H](NC(=O)[C@@H](N)Cc2ccc([N+](=O)[O-])cc2)CSSC[C@@H](C(=O)N[C@@H](Cc2ccc(O)cc2)C(N)=O)NC1=O (H-[Phe(4-NO2)][dC][3Pal][dW]KVCY-NH2; disulfide 2-7) = 6.63

# pIC50 of CC(C)[C@@H]1NC(=O)[C@H](CCCCN)NC(=O)[C@@H](Cc2c[nH]c3ccccc23)NC(=O)[C@H](Cc2cccnc2)NC(=O)[C@H](NC(=O)[C@@H](N)Cc2ccc3ccccc3c2)CSSC[C@@H](C(=O)N[C@H](C(N)=O)C(c2ccccc2)c2ccccc2)NC1=O (H-[2Nal][dC][3Pal][dW]KVC[Dip]-NH2; disulfide 2-7) = 6.04

# pIC50 of CC(C)[C@@H]1NC(=O)[C@H](CCCCN)NC(=O)[C@@H](Cc2c[nH]c3ccccc23)NC(=O)[C@H](Cc2ccc(O)cc2)NC(=O)[C@@H](C)N(C)C(=O)[C@H](Cc2ccccc2)NC1=O = 6.39

# pIC50 of C[C@@H](O)[C@H](NC(=O)[C@H](Cc1ccccc1)NC(=O)[C@@H](NC(=O)[C@H](CCCCN)NC(=O)[C@@H](Cc1c[nH]c2ccccc12)NC(=O)[C@H](Cc1ccc(O)cc1)NC(=O)[C@@H](Cc1ccccc1)NC(=O)[C@@H](N)Cc1ccccc1)[C@@H](C)O)C(N)=O = 6.67

# pIC50 of CC(C)[C@@H]1NC(=O)[C@H](CCCCN)NC(=O)[C@@H](Cc2c[nH]c3ccccc23)NC(=O)[C@H](Cc2ccc(O)cc2)NC(=O)[C@@H](NC(=O)[C@H](N)Cc2ccc3ccccc3c2)CSSC[C@H](C(=O)N[C@H](C(N)=O)[C@@H](C)O)NC1=O = 6.00

Continuing:
# pIC50 of CC(C)[C@@H]1NC(=O)[C@H](CCCCN)NC(=O)[C@@H](Cc2c[nH]c3ccccc23)NC(=O)[C@H](Cc2ccc(O)cc2)NC(=O)[C@@H](NC(=O)[C@H](N)Cc2ccc3ccccc3c2)CSSC[C@H](C(=O)N[C@@H](Cc2ccc3ccccc3c2)C(N)=O)NC1=O (stereo in doubt; 27) = 6.00

# pIC50 of CC(C)NC(=O)[C@@H]1CSSC[C@@H](NC(=O)[C@@H](N)Cc2ccc3ccccc3c2)C(=O)N[C@@H](Cc2ccc(O)cc2)C(=O)N[C@H](Cc2c[nH]c3ccccc23)C(=O)N[C@@H](CCCCN)C(=O)N[C@@H](C(C)C)C(=O)N1 = 5.91

# pIC50 of CC(C)[C@@H]1NC(=O)[C@H](CCCCN)NC(=O)[C@@H](Cc2c[nH]c3ccccc23)NC(=O)[C@H](Cc2cccnc2)NC(=O)[C@H](NC(=O)[C@@H](N)Cc2ccccc2)CSSC[C@@H](C(=O)N[C@@H](Cc2ccc3ccccc3c2)C(N)=O)NC1=O (H-F[dC][3Pal][dW]KVC[2Nal]-NH2; disulfide 2-7) = 6.43

# pIC50 of CC(C)[C@H](NC(=O)[C@H](CCCCN)NC(=O)[C@@H](Cc1c[nH]c2ccccc12)NC(=O)[C@H](Cc1ccc(O)cc1)NC(=O)[C@@H](Cc1ccc(Cl)cc1)NC(=O)[C@@H](N)Cc1ccccc1)C(=O)N[C@@H](Cc1ccccc1)C(=O)N[C@H](C(N)=O)[C@@H](C)O = 6.19

# pIC50 of CC(C)[C@@H]1NC(=O)[C@H](CCCCN)NC(=O)[C@@H](Cc2c[nH]c3ccccc23)NC(=O)[C@H](Cc2ccc(O)cc2)NC(=O)[C@H](NC(=O)[C@@H](N)Cc2ccc([N+](=O)[O-])cc2)CSSC[C@@H](C(=O)N[C@@H](Cc2ccc(O)cc2)C(N)=O)NC1=O (H-[Phe(4-NO2)][dC]Y[dW]KVCY-NH2; disulfide 2-7) = 6.75

# pIC50 of CC(C)[C@@H]1NC(=O)[C@H](CCCCN)NC(=O)[C@@H](Cc2c[nH]c3ccccc23)NC(=O)[C@H](Cc2c[nH]cn2)NC(=O)[C@H](NC(=O)[C@@H](N)Cc2ccc3ccccc3c2)CSSC[C@@H](C(=O)N[C@@H](Cc2ccc3ccccc3c2)C(N)=O)NC1=O (H-[2Nal][dC]H[dW]KVC[2Nal]-NH2; disulfide 2-7) = 7.17
